# measured-on: Androgen Receptor (AR) protein (Homo sapiens, UniProt P10275, T878A)
# Construct: endogenous in cells; host or cells: LNCaP
# Sequence (P10275 whole entry T878A): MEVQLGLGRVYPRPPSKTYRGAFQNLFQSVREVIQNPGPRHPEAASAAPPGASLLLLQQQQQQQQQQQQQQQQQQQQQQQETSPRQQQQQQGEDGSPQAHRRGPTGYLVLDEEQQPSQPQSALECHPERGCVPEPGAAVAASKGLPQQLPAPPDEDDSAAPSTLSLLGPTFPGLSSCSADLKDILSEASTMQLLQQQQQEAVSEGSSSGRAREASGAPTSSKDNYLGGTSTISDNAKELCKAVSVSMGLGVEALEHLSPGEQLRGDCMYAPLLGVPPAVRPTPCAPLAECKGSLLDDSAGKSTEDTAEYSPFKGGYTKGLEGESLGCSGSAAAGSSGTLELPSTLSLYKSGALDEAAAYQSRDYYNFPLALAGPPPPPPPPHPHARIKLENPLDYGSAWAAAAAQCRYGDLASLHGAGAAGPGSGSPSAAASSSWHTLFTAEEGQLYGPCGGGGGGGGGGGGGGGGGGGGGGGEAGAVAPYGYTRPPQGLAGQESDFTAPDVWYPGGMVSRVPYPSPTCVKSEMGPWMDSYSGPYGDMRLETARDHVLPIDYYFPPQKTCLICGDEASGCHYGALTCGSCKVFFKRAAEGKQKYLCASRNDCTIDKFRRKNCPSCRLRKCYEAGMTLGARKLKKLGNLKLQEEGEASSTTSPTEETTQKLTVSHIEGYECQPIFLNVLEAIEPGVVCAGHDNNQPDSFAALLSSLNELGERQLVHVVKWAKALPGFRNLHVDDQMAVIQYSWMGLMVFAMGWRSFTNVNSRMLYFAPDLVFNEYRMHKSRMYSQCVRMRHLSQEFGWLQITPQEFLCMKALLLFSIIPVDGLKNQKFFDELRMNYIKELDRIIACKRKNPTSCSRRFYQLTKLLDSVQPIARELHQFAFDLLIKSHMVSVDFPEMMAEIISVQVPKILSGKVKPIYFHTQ
# Sequence (Q96SW2 whole entry partner): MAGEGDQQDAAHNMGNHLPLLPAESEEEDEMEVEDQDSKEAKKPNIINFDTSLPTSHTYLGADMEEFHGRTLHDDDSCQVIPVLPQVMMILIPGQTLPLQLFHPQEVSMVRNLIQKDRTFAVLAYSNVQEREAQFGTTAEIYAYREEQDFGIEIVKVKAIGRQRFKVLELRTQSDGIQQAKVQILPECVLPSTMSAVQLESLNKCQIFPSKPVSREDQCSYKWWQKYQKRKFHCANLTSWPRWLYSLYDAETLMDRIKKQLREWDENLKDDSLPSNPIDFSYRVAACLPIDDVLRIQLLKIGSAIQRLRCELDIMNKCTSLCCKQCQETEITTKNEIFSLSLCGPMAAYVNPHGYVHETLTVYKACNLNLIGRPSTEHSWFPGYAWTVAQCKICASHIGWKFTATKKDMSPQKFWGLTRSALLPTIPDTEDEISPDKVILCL
# experimental-protocol: Androgen Receptor (AR) protein degradation assay in LNCaP cells, western blotting
# Type: cell-based
# condition-notes: 20 h, 0.01 μM compound
Please respond with reported inhibition at 0.01 µM for every item in the list.
Numbers only, in %.

Here is how some molecules turned out for inhibition at 0.01 µM.
| molecule | measured-on | output-unit | inhibition at 0.01 µM |
| --- | --- | --- | --- |
| N#Cc1ccc(N2CCC(C(=O)Nc3ccc(N4CCC(CN5CCN(CC(=O)Nc6cccc(NC7CCC(=O)NC7=O)c6)CC5)CC4)cn3)CC2)cc1C(F)(F)F (stereo not shown) | Androgen Receptor (AR) protein (Homo sapiens, UniProt P10275, T878A) | % | 14 |
| N#Cc1ccc(N2CCC(C(=O)Nc3ccc(N4CCC(CN5CC6(CCN(c7ccc8c(c7)CN(C7CCC(=O)NC7=O)C8=O)CC6)C5)CC4)cn3)CC2)cc1C(F)(F)F (stereo not shown) | Androgen Receptor (AR) protein (Homo sapiens, UniProt P10275, T878A) | % | 35 |
| N#Cc1ccc(N2CCC(C(=O)Nc3ccc(N4CCC(CCN5CCC6(CC5)CN(c5ccc7c(c5)C(=O)N(C5CCC(=O)NC5=O)C7=O)C6)CC4)cn3)CC2)cc1C(F)(F)F (stereo not shown) | Androgen Receptor (AR) protein (Homo sapiens, UniProt P10275, T878A) | % | 62 |

Each molecule below has a recorded value; state its inhibition at 0.01 µM.
1. N#Cc1ccc(N2CCC(C(=O)Nc3ccc(N4CCN(CCC5CCN(c6ccc7c(c6)C(=O)N(C6CCC(=O)NC6=O)C7=O)CC5)CC4)cn3)CC2)cc1Cl (stereo not shown)
2. N#Cc1ccc(N2CCC(C(=O)Nc3ccc(CC4CCN(CC5CCN(c6ccc7c(c6)C(=O)N(C6CCC(=O)NC6=O)C7=O)CC5)CC4)cn3)CC2)cc1C(F)(F)F (stereo not shown)
3. N#Cc1ccc(N2CCC(F)(C(=O)Nc3ccc(N4CCC(CN5CC6(CCN(c7ccc8c(c7)CN(C7CCC(=O)NC7=O)C8=O)CC6)C5)CC4)cn3)CC2)cc1C(F)(F)F (stereo not shown)

[0, 79, 38]

Each molecule below has a recorded value; state its inhibition at 0.01 µM.
1. N#Cc1ccc(N2CCC(C(=O)Nc3ccc(N4CCC(CN5CCN(CC6CCN(c7ccc(C(=O)NC8CCC(=O)NC8=O)nc7)CC6)CC5)CC4)cn3)CC2)cc1C(F)(F)F (stereo not shown)
2. COc1ccc(C(=O)N2CC3(CCN(CC4CCN(c5ccc(NC(=O)C6CCN(c7ccc(C#N)c(C(F)(F)F)c7)CC6)nc5)CC4)CC3)C2)cc1N1CCC(=O)NC1=O
3. N#Cc1ccc(N2CCC(C(=O)Nc3ccc(OC4CCN(CC5CN(c6ccc7c(c6)C(=O)N(C6CCC(=O)NC6=O)C7=O)C5)CC4)cn3)CC2)cc1C(F)(F)F (stereo not shown)
4. N#Cc1ccc(N2CCC(C(=O)Nc3ccc(N4CCC(CN5CCN(CC6CN(c7ccc8c(c7)C(=O)N(C7CCC(=O)NC7=O)C8=O)C6)CC5)CC4)cn3)CC2)cc1C(F)(F)F (stereo not shown)

1. 32
2. 55
3. 69
4. 76

* * *

# measured-on: Androgen Receptor (AR) protein (Homo sapiens, UniProt P10275, T878A)
# Construct: endogenous in cells; host or cells: LNCaP
# experimental-protocol: Androgen Receptor (AR) protein degradation assay in LNCaP cells, western blotting
# Assay type: cell-based
# condition-notes: 20 h, 0.1 μM compound
Please respond with reported inhibition at 0.1 µM for every item in the list.

Each molecule below has a recorded value; state its inhibition at 0.1 µM.
1. N#Cc1ccc(N2CCC(C(=O)Nc3ccc(N4CCC(CN5CC6CN(c7ccc8c(c7)C(=O)N(C7CCC(=O)NC7=O)C8=O)CC6C5)CC4)cn3)CC2)cc1C(F)(F)F (stereo not shown) [Example 85]
2. CN(CCN1CCN(c2ccc3c(c2)C(=O)N(C2CCC(=O)NC2=O)C3=O)CC1)CC1CCN(c2ccc(NC(=O)C3CCN(c4ccc(C#N)c(C(F)(F)F)c4)CC3)nc2)CC1 (stereo not shown) [Example 110]

1. 89%
2. 89%

Each molecule below has a recorded value; state its inhibition at 0.1 µM.
1. N#Cc1ccc(N2CCC(C(=O)Nc3ccc(N4CCC(CN5CC(CN6CCN(c7ccc8c(n7)CN(C7CCC(=O)NC7=O)C8=O)CC6)C5)CC4)cn3)CC2)cc1C(F)(F)F (stereo not shown) [Example 80]
2. N#Cc1ccc(N2CCC(C(=O)Nc3ccc(N4CCC(CN5CCN(C6CCN(c7ccc(C(=O)NC8CCC(=O)NC8=O)nc7)CC6)CC5)CC4)cn3)CC2)cc1C(F)(F)F (stereo not shown) [Example 105]
3. CN(CCC1CCN(c2ccc(NC(=O)C3CCN(c4ccc(C#N)c(C(F)(F)F)c4)CC3)nc2)CC1)C1CCN(c2ccc3c(c2)C(=O)N(C2CCC(=O)NC2=O)C3=O)CC1 (stereo not shown) [Example 102]
4. N#Cc1ccc(N2CCC(C(=O)Nc3ccc(N4CCC(CN5CC6(CCN(c7ccc8nnn(C9CCC(=O)NC9=O)c(=O)c8c7)CC6)C5)CC4)cn3)CC2)cc1C(F)(F)F (stereo not shown) [Example 53]
5. N#Cc1ccc(N2CCC(C(=O)Nc3ccc(N4CCC(CN5CCN(C[C@@H]6CCCN(c7ccc8c(c7)C(=O)N(C7CCC(=O)NC7=O)C8=O)C6)CC5)CC4)cn3)CC2)cc1C(F)(F)F (stereo partly shown) [Example 17]

["90%", "82%", "90%", "89%", "90%"]

* * *

# measured-on: Androgen Receptor (AR) protein (Homo sapiens, UniProt P10275, T878A)
# Construct: endogenous in cells; host or cells: LNCaP
# experimental-protocol: Androgen Receptor (AR) protein degradation assay in LNCaP cells, western blotting
# Format: cell-based
# condition-notes: 20 h, 1 μM compound
Please respond with reported inhibition at 1 µM for every item in the list.
One number for each entry, in %.

| compound | measured-on | output-unit | observed-measurement |
| --- | --- | --- | --- |
| C[C@@H]1CN(CC2CCN(c3ccc(NC(=O)C4CCN(c5ccc(C#N)c(C(F)(F)F)c5)CC4)nc3)CC2)CCN1CC1CCN(c2ccc3c(n2)CN(C2CCC(=O)NC2=O)C3=O)CC1 (some centres unmarked) [Example 47] | Androgen Receptor (AR) protein (Homo sapiens, UniProt P10275, T878A) | % | 89 |

Each compound below has a recorded value; state its inhibition at 1 µM.
1. N#Cc1ccc(N2CCC(C(=O)Nc3ccc(N4CCC(OCCN5CCN(c6ccc7c(c6)C(=O)N(C6CCC(=O)NC6=O)C7=O)CC5)CC4)cn3)CC2)cc1Cl (centres unmarked) [Example 151]
2. N#Cc1ccc(N2CCC(C(=O)Nc3ccc(N4CCC(CCN5CC6(CCN(c7ccc8c(c7)CN(C7CCC(=O)NC7=O)C8=O)CC6)C5)CC4)cn3)CC2)cc1C(F)(F)F (centres unmarked) [Example 138]
3. N#Cc1ccc(N2CCC(C(=O)Nc3ccc(N4CCC(CN5CC6CN(c7ccc8c(c7)C(=O)N(C7CCC(=O)NC7=O)C8=O)CC6C5)CC4)cn3)CC2)cc1C(F)(F)F (centres unmarked) [Example 85]
4. CN(CCN1CCN(c2ccc3c(c2)C(=O)N(C2CCC(=O)NC2=O)C3=O)CC1)CC1CCN(c2ccc(NC(=O)C3CCN(c4ccc(C#N)c(C(F)(F)F)c4)CC3)nc2)CC1 (centres unmarked) [Example 110]

92
90
92
88

* * *

# measured-on: Androgen Receptor (AR) protein (Homo sapiens, UniProt P10275, T878A)
# Construct: endogenous in cells; host or cells: LNCaP
# experimental-protocol: Androgen Receptor (AR) protein degradation assay in LNCaP cells, western blotting
# Type: cell-based
# condition-notes: 20 h, 1 μM compound
Please respond with reported inhibition at 1 µM for every item in the list.
Give bare numbers, in %.

| molecule | value-type | output-unit | observed-measurement |
| --- | --- | --- | --- |
| N#Cc1ccc(N2CCC(C(=O)Nc3ccc(N4CCC(CN5CCN(C6CCN(c7ccc(C(=O)NC8CCC(=O)NC8=O)nc7)CC6)CC5)CC4)cn3)CC2)cc1C(F)(F)F (stereo not shown) | inhibition at 1 µM | % | 92 |

Each molecule below has a recorded value; state its inhibition at 1 µM.
1. N#Cc1ccc(N2CCC(C(=O)Nc3ccc(N4CCC(CN5CCC6(CC5)CCN(c5ccc7c(c5)C(=O)N(C5CCC(=O)NC5=O)C7=O)CC6)CC4)cn3)CC2)cc1Cl (stereo not shown)
2. N#Cc1ccc(N2CCC(C(=O)Nc3ccc(N4CCC(CN5CCN(CC6CCN(c7ccc8c(c7)C(=O)N(C7CCC(=O)NC7=O)C8=O)CC6)CC5)CC4)cn3)CC2)cc1C(F)(F)F (stereo not shown)
3. N#Cc1ccc(N2CCC(C(=O)Nc3ccc(N4CCC(CN5CC6(CCN(c7ccc8c(c7)C(=O)N(C7CCC(=O)NC7=O)C8=O)CC6)C5)CC4)nc3)CC2)cc1Cl (stereo not shown)

1. 85
2. 99
3. 32
